Species on record: Rattus norvegicus
assay.procedure: Open TG-GATES - Regimen: Single
Type: toxicity, organism-based, Sprague-Dawley
Set-up: regimen Single, gender Male, age 6 weeks
condition.context: in vivo, po, 0 mg/kg, 9 h, tissue Blood, route gavage, dose level Control
molecules and their reported Plat
State the answer as a number, implicitly in x10_4/uL.

Below are worked cases with known answers.
>  <molecule>
CN(C)CCC=C1c2ccccc2CCc2ccccc21

>  <unit.abbreviation>
x10_4/uL

>  <Plat>
119.1

$$$$
>  <molecule>
CCc1cc(C(N)=S)ccn1 [ETHIONAMIDE]

>  <unit.abbreviation>
x10_4/uL

>  <Plat>
115.1

$$$$
>  <molecule>
NC(=O)N/N=C/c1ccc([N+](=O)[O-])o1

>  <unit.abbreviation>
x10_4/uL

>  <Plat>
109.4

$$$$
>  <molecule>
Cn1c(=O)c2[nH]cnc2n(C)c1=O.O

>  <unit.abbreviation>
x10_4/uL

>  <Plat>
119

$$$$
>  <molecule>
CSc1ccc2c(c1)N(CCC1CCCCN1C)c1ccccc1S2 (configuration not stated)

>  <unit.abbreviation>
x10_4/uL

>  <Plat>
111.7

$$$$

Reported Plat ( `COc1ccc(Cc2nccc3cc(OC)c(OC)cc23)cc1OC` ) = 107.7

Reported Plat ( `O=C(O)c1cc(/N=N/c2ccc(S(=O)(=O)Nc3ccccn3)cc2)ccc1O` ) = 115.1

Reported Plat ( `Clc1ccccc1CN1CCc2sccc2C1` ) = 131.6

Reported Plat ( `O=C(O)c1cn(C2CC2)c2cc(N3CCNCC3)c(F)cc2c1=O` ) = 116.2

Reported Plat ( NC(=O)N1c2ccccc2C=Cc2ccccc21 [CARBAMAZEPINE] ) = 119.7

Reported Plat ( `CC(=O)Oc1ccccc1C(=O)O` ) = 121.8

Reported Plat ( `C[C@H](CS)C(=O)N1CCC[C@H]1C(=O)O` ) = 118.8
